Each entry below lists one item and its recorded IC50 (nM), IL-6 secretion by MEF cells stimulated with IL-17F (5 ng/ml) and mTNF-α value.
- Target under test: T1, cynomolgus IL-17F homodimer, His-tagged (cynomolgus, UniProt G7P4V0 31-163)
- T1 sequence: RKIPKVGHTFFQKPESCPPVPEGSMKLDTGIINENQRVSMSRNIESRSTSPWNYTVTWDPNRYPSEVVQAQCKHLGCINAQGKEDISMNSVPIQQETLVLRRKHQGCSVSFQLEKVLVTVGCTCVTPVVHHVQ
- Test protocol: cell-based or functional assay
Please reply with the bare figure in nM and do not write the unit itself.

11C5 antibody (antibody, V domains shown) VH: QVQLVQSGAEVKKPGASVKVSCKASGYTFTIYYLHWVRQAPGQGLEWMGIINPSGGRTNYAQKFQGRVTMTRDPSTNTVYMELSSLTSEDAAVYYCARGEFSSGWLDYWGQGTTVTVSS VL: DIQMTQSPSSVSASVGDRVTITCRASQGISSWLAWYQHKPGKAPKLLIYAASSLQSGVPSRFSGSGSGTDFTLTISSLQPEDFATYYCQQANSFPLTFGGGTKVEIK : 2.9
5D3 antibody (antibody, V domains shown) VH: EVQLVESGGGLVQPGRSLRLSCAASGFTFDDYAMHWVRQAPGKGLEWVSGISWNSGSRGYADSVKGRFTISRDNAKNSLYLQMNSLRAEDTALYYCAKDMVYALDVWGQGTTVTVSS VL: EIVLTQSPGTLSLSPGERATLSCRASQSFSGSYLAWYQQKPGQAPRLLIYDTSSRATGIPDRFSGSGSGTDFTLTISRLEPEDFAVYYCQQYGTWTFGQGTKVEIK : 12
1F1 antibody (antibody, V domains shown) VH: EVQLLESGGGLVQPGGSLRLSCAASGFTFSSYVMSWVRQVPGKGLEWVSAISGRGGNTFYADSVKGRFTISRDNSKNTLYLQMDSLRAEDTAVYYCAKDDRRIAAGSFDYWGQGTTVTVSS VL: AIQLTQSPSSLSASVGDRVTITCRASQGISSALAWYQQKPGKAPKLLIYDVSSLESGVPSRFSGSGSGTDFTLTISSLQPEDFATYYCQQFNSYPLTFGGGTKVEIK : 11
2E12 antibody (antibody, V domains shown) VH: EVQLVESGGGLVQRGGSLRLSCAASGFTFSSYSMNWVRQAPGKGLEWISYISSSSSAIYYADSVKGRFTISRDNAKNSLYLQMNSLRDEDTAVYYCAREGYASGRYYNYYYGMDVWGQGTTVTVSS VL: EIVLTQSPATLSLSPGERATLSCRASQSVSSYLAWYQQKPGQAPRLLIYDASNRATGIPARFSVSGSGTDFTLTISSLEPEDFAVYYCQQRSSWSLTFGGGTKVEIK : 26

Give reported IC50 (nM), IL-6 secretion by MEF cells stimulated with IL-17F (5 ng/ml) and mTNF-α value for 28B11 antibody (antibody, V domains shown) VH: QVQLVESGGGLVKPGGSLRLSCAASGFTFSNYYMTWIRQAPGKGLEWISYISSTGGNIYYADSVKGRFTISRDNAQNSLYLQMNSLRAEDTAVYYCARDGGVIISTAMFDYWGQGTTVTVSS VL: AIQLTQSPSSLSASVGDRVTITCRASQGISSALAWYQQKPGKAPKLLIYDASSLESGVPSRLSGSGSGTDFTLTISSLQPEDFATYYCQQFNSYPLTFGGGTKVEIK
6.3
